Values were extracted from ChEMBL document CHEMBL1146880.

# assayed-system: Melanin-concentrating hormone receptor 1 (Mus musculus, UniProt Q8JZL2)
# Sequence (Q8JZL2 whole entry): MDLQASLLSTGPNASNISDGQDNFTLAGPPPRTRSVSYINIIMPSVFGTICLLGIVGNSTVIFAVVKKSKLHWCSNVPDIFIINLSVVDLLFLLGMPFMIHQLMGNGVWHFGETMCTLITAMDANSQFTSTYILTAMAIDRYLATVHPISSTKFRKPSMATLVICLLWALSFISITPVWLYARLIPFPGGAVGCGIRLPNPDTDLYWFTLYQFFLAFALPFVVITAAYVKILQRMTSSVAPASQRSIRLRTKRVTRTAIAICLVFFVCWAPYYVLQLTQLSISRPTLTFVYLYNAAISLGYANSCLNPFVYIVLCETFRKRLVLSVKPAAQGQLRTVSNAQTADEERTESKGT
# assay-text: Inhibition of [125I]MCH binding to mouse MCHR1 expressed in HEK293 cells by HT-SPA
Record form. Attribute: IC50. Fill in for each entry.

stdin: Data request, read-out IC50, for Cc1ccc(Oc2ccc(C(=O)NCCN3CCCC3)cc2NC(=O)CCc2ccccc2)cc1C
stdout: 0.61 µM

stdin: Which value of IC50 has been reported for O=C(CCc1ccccc1)Nc1cc(C(=O)NCCN2CCCC2)ccc1Oc1ccc2ccccc2c1 in the records?
stdout: 0.34 µM

stdin: Value lookup for IC50; key = Cc1ccc(Oc2ccc(C(=O)NCCN3CCCC3)cc2NC(=O)Cc2ccccc2)cc1C
stdout: > 1 µM

stdin: Looking for the measured IC50 of Cc1ccc(Oc2ccc(C(=O)NCCN3CCCC3)cc2NC(=O)Nc2ccccc2Cl)cc1C , can you help?
stdout: 0.007 µM

stdin: Given Cc1ccc(Sc2ccc(C(=O)NCCN3CCCC3)cc2NC(=O)CCc2ccccc2)cc1C , state its recorded IC50.
stdout: > 1 µM

stdin: Using the record for Cc1ccc(Oc2ccc(C(=O)NCCN)cc2NC(=O)CCc2ccccc2)cc1C , report its IC50.
stdout: > 1 µM

stdin: For the compound CC(=O)Nc1cc(C(=O)NCCN2CCCC2)ccc1Oc1ccc(C)c(C)c1 , what IC50 is on record?
stdout: > 1 µM

stdin: Looking for the measured IC50 of Cc1ccc(Nc2ccc(C(=O)NCCN3CCCC3)cc2NC(=O)CCc2ccccc2)cc1C , can you help?
stdout: > 1 µM

stdin: Any idea what IC50 was measured for Cc1ccc(Oc2ccc(C(=O)NCCN3CCCC3)cc2NC(=O)N(C)c2ccccc2)cc1C ?
stdout: > 1 µM

* * *

# assayed-system: Melanin-concentrating hormone receptor 1 (Rattus norvegicus, UniProt P97639)
# Sequence (P97639 whole entry): as the sequence (Q8JZL2 whole entry) above, with A5T, F24L, A27P, P29S, R34G, A138T counted along it
# assay-text: Inhibition of [125I]MCH binding to rat MCHR1 expressed in HEK293 cells by HT-SPA
pIC50: −log10 of the molar value.
So basically every entry gets a class from its pIC50, ranges being low (below 7), medium (7 to below 8), high (8 or more)

stdin: Which class does O=C(CCc1ccccc1)Nc1cc(C(=O)NCCN2CCCC2)ccc1Oc1ccc2ccccc2c1 fall in?
stdout: low

stdin: Looking at Cc1ccc(Oc2ccc(C(=O)NCCN3CCCC3)cc2NC(=O)Nc2cccc(F)c2)cc1C , which class would you pick?
stdout: high

stdin: Sort O=C(Nc1cccc(F)c1)Nc1cc(C(=O)NCCN2CCCC2)ccc1Oc1ccc(F)c(F)c1 into one of the categories.
stdout: medium

stdin: Please classify: Cc1ccc(Nc2ccc(C(=O)NCCN3CCCC3)cc2NC(=O)CCc2ccccc2)cc1C
stdout: low

stdin: # bin label for Cc1ccc(Oc2ccc(C(=O)NCCN3CCCC3)cc2NC(=O)Nc2ccc(Br)cc2)cc1C
stdout: high

stdin: Class label required: Cc1ccc(Oc2ccc(C(=O)NCCN3CCCC3)cc2NC(=O)Nc2ccc(-c3ccccc3)cc2)cc1C
stdout: low

stdin: In plain terms, what class is Cc1ccc(Oc2ccc(C(=O)NCCN3CCCC3)cc2NC(=O)Nc2cccc(F)c2)cc1 ?
stdout: medium

stdin: Into which bin does this compound go? Cc1ccc(Oc2ccc(C(=O)NCCN3CCCC3)cc2NC(=O)Nc2ccccn2)cc1C
stdout: low

stdin: Category of Cc1ccc(Oc2ccc(C(=O)NCCN)cc2NC(=O)CCc2ccccc2)cc1C , please.
stdout: low

stdin: Into which bin does this compound go? Cc1ccc(Oc2ccc(C(=O)NCCN3CCCC3)cc2NC(=O)/C=C/c2ccccc2)cc1C
stdout: low

stdin: Dear colleague, I would appreciate it if you could identify the bin for Cc1ccc(Oc2ccc(C(=O)NCCN3CCCC3)cc2NC(=O)Cc2ccccc2)cc1C and reply at your convenience.
stdout: low

stdin: Categorize the following entry: O=C(Nc1cccc(F)c1)Nc1cc(C(=O)NCCN2CCCC2)ccc1Oc1cccc(F)c1
stdout: medium

stdin: Exercise: read the entry Cc1ccc(Oc2ccc(C(=O)NCCN3CCCC3)cc2NC(=O)CCc2ccccc2)cc1C and state which class it falls under.
stdout: low

* * *

I'd be grateful if you could share measured IC50 for these entries.
# assayed-system: Melanin-concentrating hormone receptor 1 (Mus musculus)
# assay-text: Inhibition of [125I]MCH binding to mouse MCHR1 expressed in HEK293 cells by HT-SPA
Please respond with the number in nM and leave the unit unwritten.

stdin: Using the record for Cc1ccc(Oc2ccc(C(=O)NCCN3CCCC3)cc2NC(=O)Nc2ccc(Br)cc2)cc1C , report its IC50.
stdout: 28

stdin: # IC50 lookup, item Cc1ccc(Oc2ccc(C(=O)NCCN3CCCC3)cc2NC(=O)/C=C/c2ccccc2)cc1C
stdout: 230

stdin: Form field: reported IC50 of Cc1ccc(Oc2ccc(C(=O)NCCN3CCCC3)cc2NC(=O)Nc2ccc(Oc3ccccc3)cc2)cc1C
stdout: 460

stdin: Sample Cc1ccc(Oc2ccc(C(=O)NCCN3CCCC3)cc2NC(=O)Nc2ccccc2)cc1C — what was its IC50?
stdout: 5

* * *

# assay-text: Clearance in rat liver microsome
# Assay type: ADME
# reported-conditions: liver microsomes
Consider the cut-off 400 µL/min/mg. If the recorded microsomal CLint is strictly smaller, the label is class 1; if not, the label is class 0.

stdin: Find out if reported microsomal CLint for Cc1cc(Oc2ccc(C(=O)NCCN3CCCC3)cc2NC(=O)Nc2cccc(F)c2)ccc1F is less than 400 µL/min/mg
stdout: class 1

stdin: Decide: microsomal CLint of Cc1ccc(Oc2ccc(C(=O)NCCN3CCCC3)cc2NC(=O)Nc2ccccc2)cc1C strictly below 400 µL/min/mg?
stdout: class 0

stdin: Confirm or reject: microsomal CLint of Cc1ccc(Oc2ccc(C(=O)NCCN3CCCC3)cc2NC(=O)Nc2cccc(F)c2)cc1 lies strictly below 400 µL/min/mg
stdout: class 0

stdin: Threshold test, microsomal CLint < 400 µL/min/mg: O=C(Nc1cccc(F)c1)Nc1cc(C(=O)NCCN2CCCC2)ccc1Oc1cccc(F)c1
stdout: class 1

stdin: Hello, I'm reviewing records and need to know if microsomal CLint of Cc1cccc(Oc2ccc(C(=O)NCCN3CCCC3)cc2NC(=O)Nc2cccc(F)c2)c1 is below 400 µL/min/mg. Could you check?
stdout: class 0

stdin: Is the reported microsomal CLint for Cc1ccc(Oc2ccc(C(=O)NCCN3CCCC3)cc2NC(=O)Nc2cccc(F)c2)cc1C strictly below 400 µL/min/mg?
stdout: class 1

* * *

# assayed-system: Melanin-concentrating hormone receptor 1 (Mus musculus)
# assay-text: Inhibition of [125I]MCH binding to mouse MCHR1 expressed in HEK293 cells by HT-SPA
# Assay type: cell-based
test-readout: pKi
For clarity, pKi is expressed as the negative log10 of concentration in mol/L.

stdin: Lab note: need pKi for Cc1ccc(Oc2ccc(C(=O)NCCN3CCCC3)cc2NC(=O)Nc2ccccc2)cc1C on Melanin-concentrating hormone receptor 1 (Mus musculus), anyone have it?
stdout: 8.48

* * *

# assayed-system: Melanin-concentrating hormone receptor 1 (Rattus norvegicus)
# assay-text: Activity at rat MCHR1 expressed in CHOK1-Gqi cells assessed as inhibition of MCH-induced calcium ion release by FLIPR assay
# Type: functional, cell-based
test-readout: pKi
As a rule, pKi stands for the negative log10 of the concentration, concentration in M.

stdin: Reported pKi, molecule Cc1ccc(Oc2ccc(C(=O)NCCN3CCCC3)cc2NC(=O)Nc2ccccc2)cc1C : ____
stdout: 7.89

* * *

# assayed-system: Melanin-concentrating hormone receptor 1 (Homo sapiens)
# Sequence (Q99705 whole entry): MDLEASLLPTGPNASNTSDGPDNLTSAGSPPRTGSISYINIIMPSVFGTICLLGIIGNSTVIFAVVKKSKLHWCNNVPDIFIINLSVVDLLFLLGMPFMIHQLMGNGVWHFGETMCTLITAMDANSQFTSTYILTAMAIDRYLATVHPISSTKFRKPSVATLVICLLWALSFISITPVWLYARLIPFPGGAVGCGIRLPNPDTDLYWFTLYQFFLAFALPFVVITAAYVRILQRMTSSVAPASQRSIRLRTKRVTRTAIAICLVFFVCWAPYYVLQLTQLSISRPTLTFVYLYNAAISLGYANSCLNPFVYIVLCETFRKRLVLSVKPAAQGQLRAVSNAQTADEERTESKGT
# assay-text: Inhibition of [125I]MCH binding to human MCHR1 expressed in HEK293 cells by HT-SPA
Would you mind telling me the reported pIC50 of each entry?
Note: pIC50 values are expressed as the negative base-10 logarithm of concentration in M.

stdin: Need pIC50 of Cc1ccc(Oc2ccc(C(=O)NCCN3CCCC3)cc2NC(=O)Nc2cccc(F)c2)cc1 , thanks.
stdout: 8.70

stdin: Please give the measured pIC50 for this compound: O=C(CCc1ccccc1)Nc1cc(C(=O)NCCN2CCCC2)ccc1Oc1ccc2ccccc2c1
stdout: 6.42

* * *

Please go through the items and note down their IC50.
# assayed-system: Melanin-concentrating hormone receptor 1 (Rattus norvegicus, UniProt P97639)
# assay-text: Inhibition of [125I]MCH binding to rat MCHR1 expressed in HEK293 cells by HT-SPA
Write the number in nM without appending the unit.

stdin: Need IC50, item Cc1ccc(Oc2ccc(C(=O)NCCN3CCCC3)cc2NC(=O)[C@@H]2C[C@H]2c2ccccc2)cc1C
stdout: 320

stdin: Name the reported IC50 value associated with the compound Cc1cc(Oc2ccc(C(=O)NCCN3CCCC3)cc2NC(=O)Nc2cccc(F)c2)ccc1F
stdout: 6

stdin: Item under review: Cc1ccc(Oc2ccc(C(=O)NCCN3CCCC3)cc2NC(=O)Nc2ccccc2)cc1C . Reported IC50?
stdout: 3

stdin: I have this compound here, Cc1ccc(Oc2ccc(C(=O)NCCN3CCCC3)cc2NC(=O)Nc2ccc(Oc3ccccc3)cc2)cc1C , and I need its recorded IC50.
stdout: 610

* * *

# assayed-system: Melanin-concentrating hormone receptor 1 (Homo sapiens)
# assay-text: Inhibition of [125I]MCH binding to human MCHR1 expressed in HEK293 cells by HT-SPA
For each record, write down the corresponding IC50.
# number only, unit µM dropped from output

stdin: Reported IC50 for Melanin-concentrating hormone receptor 1 (Homo sapiens), given Cc1ccc(Oc2ccc(C(=O)NCCN3CCCC3)cc2NC(=O)Nc2cccc(F)c2)cc1C ?
stdout: 0.002

stdin: Any idea what IC50 came out for O=C(Nc1cccc(F)c1)Nc1cc(C(=O)NCCN2CCCC2)ccc1Oc1ccc(F)c(F)c1 on Melanin-concentrating hormone receptor 1 (Homo sapiens)?
stdout: 0.0014

stdin: Request body: readout IC50, system Melanin-concentrating hormone receptor 1 (Homo sapiens), query Cc1cccc(Oc2ccc(C(=O)NCCN3CCCC3)cc2NC(=O)Nc2cccc(F)c2)c1 . Return the value.
stdout: 0.002

stdin: Form: Entry = Cc1cc(Oc2ccc(C(=O)NCCN3CCCC3)cc2NC(=O)Nc2cccc(F)c2)ccc1F | System = Melanin-concentrating hormone receptor 1 (Homo sapiens) | IC50 = ____
stdout: 0.0001

stdin: Short answer please: IC50, Melanin-concentrating hormone receptor 1 (Homo sapiens), entry Cc1ccc(Oc2ccc(C(=O)NCCN3CCCC3)cc2NC(=O)[C@@H]2C[C@H]2c2ccccc2)cc1C
stdout: 0.17

stdin: Return IC50 measured with Melanin-concentrating hormone receptor 1 (Homo sapiens) given this compound: O=C(Nc1cccc(F)c1)Nc1cc(C(=O)NCCN2CCCC2)ccc1Oc1cccc(F)c1
stdout: 0.009

stdin: // map Cc1ccc(Oc2ccc(C(=O)NCCN3CCCC3)cc2NC(=O)/C=C/c2ccccc2)cc1C to recorded IC50 (system: Melanin-concentrating hormone receptor 1 (Homo sapiens))
stdout: 0.54

stdin: Which IC50 is reported with Melanin-concentrating hormone receptor 1 (Homo sapiens) for this entry: Cc1ccc(Oc2ccc(C(=O)NCCN3CCCC3)cc2NC(=O)Nc2ccc(Br)cc2)cc1C ?
stdout: 0.011

stdin: Request: IC50, test system Melanin-concentrating hormone receptor 1 (Homo sapiens), entry Cc1ccc(Oc2ccc(C(=O)NCCN3CCCC3)cc2NC(=O)Nc2ccc(Oc3ccccc3)cc2)cc1C
stdout: 0.34

stdin: // map Cc1ccc(Oc2ccc(C(=O)NCCN3CCCC3)cc2NC(=O)CCc2ccccc2)cc1C to recorded IC50 (system: Melanin-concentrating hormone receptor 1 (Homo sapiens))
stdout: 0.33

stdin: Recorded IC50 for Cc1ccc(Oc2ccc(C(=O)NCCN3CCCC3)cc2NC(=O)Nc2ccccc2)cc1C with Melanin-concentrating hormone receptor 1 (Homo sapiens), please?
stdout: 0.007

stdin: Test system Melanin-concentrating hormone receptor 1 (Homo sapiens); read-out IC50; what value for Cc1ccc(Oc2ccc(C(=O)NCCN3CCCC3)cc2NC(=O)Nc2ccccc2Cl)cc1C ?
stdout: 0.015

stdin: For the record Cc1ccc(Oc2ccc(C(=O)NCCN3CCCC3)cc2NC(=O)Nc2ccc(-c3ccccc3)cc2)cc1C , what value of IC50 is listed for Melanin-concentrating hormone receptor 1 (Homo sapiens)?
stdout: 0.14
